Reference for the values: patent US8097774B2

# Test system: Transgenic progeny plants (T1 or later generations) containing the nsf transgene (vector 17108)
# ASSAY_PROCEDURE: T1 seed from 17108 events, spray with other HPPD herbicides
# CONDITION_CONTEXT: sprayed at 40-80 g/ha rates or higher; evaluated for bleaching and chlorosis
OBSERVABLE: tolerance when sprayed

Would you please look over these solved cases?
> print(dat)
                                   compound             result
1  Cc1nn(C)c(O)c1C(=O)c1ccc(C(F)(F)F)cc1S(C)(=O)=O [Pyrasulfatole]  display tolerance
2  CS(=O)(=O)c1cc(Cl)ccc1C(=O)c1cnoc1C1CC1 [Isoxachlortole]  display tolerance
3  Cc1ccc(C(=O)COc2c(C(=O)c3ccc(Cl)c(C)c3Cl)c(C)nn2C)cc1 [Benzofenap]  display tolerance
4  Cc1c(C(=O)c2cnn(C)c2O)ccc(S(C)(=O)=O)c1C1=NOCC1 [Topramezone]  display tolerance
5  CS(=O)(=O)c1ccc(C(=O)C2C(=O)CCCC2=O)c(Cl)c1 [Sulcotrione]  display tolerance

Please look at the following compound next.
# tolerance when sprayed of CS(=O)(=O)c1ccc(C(=O)C2=C(Sc3ccccc3)C3CCC(C3)C2=O)c(Cl)c1 (stereo not drawn) [Benzobicyclon] = display tolerance
